Where these numbers come from: patent US20100323969

- Measurement target: T1, human P-selectin IgG-Fc chimera (human, UniProt P16109)
- T1 chain: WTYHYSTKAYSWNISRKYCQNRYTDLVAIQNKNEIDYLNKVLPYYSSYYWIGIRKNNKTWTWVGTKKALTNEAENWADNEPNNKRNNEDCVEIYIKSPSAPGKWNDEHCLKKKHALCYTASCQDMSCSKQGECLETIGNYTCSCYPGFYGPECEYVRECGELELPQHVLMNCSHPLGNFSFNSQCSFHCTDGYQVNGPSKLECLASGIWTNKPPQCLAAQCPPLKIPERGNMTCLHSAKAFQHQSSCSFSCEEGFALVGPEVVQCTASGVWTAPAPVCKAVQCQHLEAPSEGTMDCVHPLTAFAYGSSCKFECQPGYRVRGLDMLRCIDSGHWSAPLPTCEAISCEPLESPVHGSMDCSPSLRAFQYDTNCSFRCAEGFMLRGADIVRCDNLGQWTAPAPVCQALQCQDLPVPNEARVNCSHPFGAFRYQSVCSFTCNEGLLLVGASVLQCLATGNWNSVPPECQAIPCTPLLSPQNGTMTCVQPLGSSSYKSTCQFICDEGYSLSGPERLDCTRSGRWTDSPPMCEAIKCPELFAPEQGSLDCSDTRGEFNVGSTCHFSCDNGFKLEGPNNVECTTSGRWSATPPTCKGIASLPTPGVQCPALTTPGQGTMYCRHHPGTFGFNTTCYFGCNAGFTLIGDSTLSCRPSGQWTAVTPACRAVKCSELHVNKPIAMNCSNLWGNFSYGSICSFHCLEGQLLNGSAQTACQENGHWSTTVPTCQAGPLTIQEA
- Assay details: competition ELISA
Ends that are not written are not given here. * marks the point of attachment. Galloyl = O=C(c1cc(O)c(O)c(O)c1)*
Property label: IC50 (µM)

Binder: KWVDV [A130]
Value measured: 28

a = Galloyl-WVDV [Compound 12 (GA-WVDV)]
b = AWVDV [A131]
Among a and b , which shows a numerically higher IC50 result? Your answer should be the label attached to the chosen record.
b
(b: 27 µM, a: 0.037 µM)
